From: patent US8247211B2

Listed here are molecules together with their documented MIC Enterococcus faecalis (GC 6189).
- Test system: Enterococcus sp.
- METHOD_NOTES: In vitro antibacterial evaluation: minimum inhibitory concentration (MIC), broth dilution method
- Type: cell-based
- PARTICULARS: Enterococcus faecalis (GC 6189); broth dilution, 18 hours at 35° C.
- Excerpt: […]
Numbered stars: 1 amine (or outer) side, 2 acyl side, 3 side chain; on linkers, the order of the positions; unused ones are H or OH. Square brackets hold non-standard residues; d marks the D form. Peptide text beside a SMILES is read from it. ξ: configuration not given here. X1 = N=C1NCC(C(O)C(N[*:1])C(=O)[*:2])N1C1OC(CO)C(O)C(O)C1O; ξEnduracididine(βξ-OH,4'ξ) = N=C1NCC(C(O)C(N)C(=O)O)N1; Cha = N[CH](CC1CCCCC1)C(=O)O
MEASURE: MIC Enterococcus faecalis (GC 6189) (µg/mL)

* N=C1NCC(C(O)C2NC(=O)C(CC3CCCCC3)NC(=O)C(CC3CCCCC3)NC(=O)CNC(=O)C(CO)NC(=O)C(C(O)C3CNC(=N)N3C3OC(CO)C(O)C(O)C3O)NC2=O)N1 (stereo not drawn) [Example 52] (cyclo(G[Cha][Cha][ξEnduracididine(βξ-OH,4'ξ)][X1]S); configuration not given here) | 32
* CC(c1ccccc1)C1NC(=O)CNC(=O)C(CO)NC(=O)C(C(O)C2CNC(=N)N2C2OC(CO)C(O)C(O)C2O)NC(=O)C(C(O)C2CNC(=N)N2)NC(=O)C(Cc2ccc3oc(-c4ccc(OCc5ccccc5)cc4)nc3c2)NC1=O (stereo not drawn) [Example 31] | 64
* CC(c1ccccc1)C1NC(=O)CNC(=O)C(CO)NC(=O)C(C(O)C2CNC(=N)N2C2OC(CO)C(O)C(O)C2O)NC(=O)C(C(O)C2CNC(=N)N2)NC(=O)C(Cc2ccc3oc(-c4ccc(Br)cc4)nc3c2)NC1=O (stereo not drawn) [Example 27] | 32
* CC(c1ccccc1)C1NC(=O)CNC(=O)C(CO)NC(=O)C(C(O)C2CNC(=N)N2C2OC(CO)C(O)C(O)C2O)NC(=O)C(C(O)C2CNC(=N)N2)NC(=O)C(Cc2ccc(OC3OC(CO)C(OC4OC5COC(c6cccc(-c7ccccc7)c6)OC5C(O)C4O)C(O)C3O)cc2)NC1=O (stereo not drawn) [Example 154] | 2

* * *

Listed here are compounds together with their documented MIC Coagulase Negative Staphylococcus (GC 4551).
- System: Staphylococcus sp.
- METHOD_NOTES: In vitro antibacterial evaluation: minimum inhibitory concentration (MIC), broth dilution method
- Assay type: cell-based
- PARTICULARS: strain GC 4551; broth dilution, 18 hours at 35° C.
- Source text: […]
MEASURE: MIC Coagulase Negative Staphylococcus (GC 4551)

- CC(c1ccccc1)C1NC(=O)CNC(=O)C(CO)NC(=O)C(C(O)C2CNC(=N)N2C2OC(CO)C(O)C(O)C2O)NC(=O)C(C(O)C2CNC(=N)N2)NC(=O)C(Cc2ccc(OC3OC(COC(=O)OCc4ccccc4)C(OC4OC(CO)C(O)C(O)C4O)C(O)C3O)cc2)NC1=O (stereo not shown): 8 µg/mL
- CC(c1ccccc1)C1NC(=O)CNC(=O)C(CO)NC(=O)C(C(O)C2CNC(=N)N2C2OC(CO)C(O)C(O)C2O)NC(=O)C(C(O)C2CNC(=N)N2)NC(=O)C(Cc2ccc(OC3OC(CO)C(OC4OC5COC(c6ccc(S(C)(=O)=O)cc6)OC5C(O)C4O)C(O)C3O)cc2)NC1=O (stereo not shown): 32 µg/mL
- CCCCOC(=O)CCC1OCC2OC(OC3C(CO)OC(Oc4ccc(CC5NC(=O)C(C(C)c6ccccc6)NC(=O)CNC(=O)C(CO)NC(=O)C(C(O)C6CNC(=N)N6C6OC(CO)C(O)C(O)C6O)NC(=O)C(C(O)C6CNC(=N)N6)NC5=O)cc4)C(O)C3O)C(O)C(O)C2O1 (stereo not shown): 2 µg/mL
- CC(C)=CCCC(C)CC1OCC2OC(OC3C(CO)OC(Oc4ccc(CC5NC(=O)C(C(C)c6ccccc6)NC(=O)CNC(=O)C(CO)NC(=O)C(C(O)C6CNC(=N)N6C6OC(CO)C(O)C(O)C6O)NC(=O)C(C(O)C6CNC(=N)N6)NC5=O)cc4)C(O)C3O)C(O)C(O)C2O1 (stereo not shown): 8 µg/mL
